Target: human TGFßRII (antigen of the Octet experiments) (human, UniProt P37173 23-166)
Sequence (P37173 23-166): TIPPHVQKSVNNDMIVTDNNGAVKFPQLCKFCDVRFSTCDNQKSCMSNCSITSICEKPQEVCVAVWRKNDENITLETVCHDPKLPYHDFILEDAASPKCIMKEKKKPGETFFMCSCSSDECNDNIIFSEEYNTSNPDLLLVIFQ
Below: a set of entries, each annotated with reported Kd.
API: value field is a number in nM; no unit string.

binder="TBRII-A_H1.29_L1 (antibody, V domains shown) VH: QLQVQESGPGLVKPSETLSLTCTVSGGSISNSYFTWGWIRQPPGKGLEWIGSFYYGEKTYYNPSLKSRATISIDTSKSQFSLKLSSVTAADTAVYYCPRGPTMIRGVIDSWGQGTLVTVSS VL: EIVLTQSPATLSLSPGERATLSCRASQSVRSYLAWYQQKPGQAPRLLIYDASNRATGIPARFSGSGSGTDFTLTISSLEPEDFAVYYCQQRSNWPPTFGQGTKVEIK" reported_measurement=4.2

Shift focus to the following entry.
Lookup: Which Kd is listed for TBRII-A_H1.36_L1 (antibody, V domains shown) VH: QLQVQESGPGLVKPSETLSLTCTVSGGSISNSYFSWSWIRQPPGKGLEWIGSFYYGEKTYYNPSLKSRATISIDTSKSQFSLKLSSVTAADTAVYYCPRGPTMIRGVIDSWGQGTLVTVSS VL: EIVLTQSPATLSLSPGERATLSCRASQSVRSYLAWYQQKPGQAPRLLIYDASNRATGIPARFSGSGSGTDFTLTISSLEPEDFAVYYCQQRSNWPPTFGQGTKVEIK ?
Found: 3.5
